# tested-target: Rat Kidney Medullary V2 Receptors (Rattus norvegicus, UniProt Q00788)
# Construct: Medullary tissues from rat kidneys are dissected out; from tissue; host or cells: rat kidney medulla membranes
# Sequence (Q00788 whole entry): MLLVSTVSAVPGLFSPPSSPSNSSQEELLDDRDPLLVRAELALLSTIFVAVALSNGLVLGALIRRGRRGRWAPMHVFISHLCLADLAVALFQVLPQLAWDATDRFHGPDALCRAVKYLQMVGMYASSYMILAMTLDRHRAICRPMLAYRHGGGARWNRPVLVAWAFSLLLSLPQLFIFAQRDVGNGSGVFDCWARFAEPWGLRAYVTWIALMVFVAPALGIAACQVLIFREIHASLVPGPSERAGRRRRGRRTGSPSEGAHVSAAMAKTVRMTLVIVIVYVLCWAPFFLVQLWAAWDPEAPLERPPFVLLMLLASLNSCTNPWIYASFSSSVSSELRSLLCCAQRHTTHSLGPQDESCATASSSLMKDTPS
# method-summary: Binding Assay to Rat Kidney Medullary V2 Receptors
# run-parameters: rat kidney medulla membranes; read-out: V2 IC50
outcome-measure: IC50 (nM)

Examples from the recorded data:
COc1cc(C(=O)N2Cc3cccn3Cc3ccccc32)ccc1NC(=O)c1cccc(F)c1C = 8
Cc1ccc(F)cc1C(=O)Nc1ccc(C(=O)N2Cc3cccn3Cc3ccccc32)c(Cl)c1 = 2.3

[P] Cc1cc(C(=O)N2Cc3cccn3Cc3ccccc32)ccc1NC(=O)c1ccc(Cl)cc1Cl
[Q] O=C(Nc1ccc(C(=O)N2Cc3cccn3Cc3ccccc32)cc1)c1ccccc1Cl
Determine, for P and Q , which has the greater value of IC50. Your answer should be the label attached to the chosen record.
P

---

# tested-target: Rat Hepatic V1 Receptors (Rattus norvegicus, UniProt P30560)
# Construct: Rat liver plasma membranes expressing the vasopressin V1 receptor subtypes; from tissue; host or cells: rat liver plasma membranes
# Sequence (P30560 whole entry): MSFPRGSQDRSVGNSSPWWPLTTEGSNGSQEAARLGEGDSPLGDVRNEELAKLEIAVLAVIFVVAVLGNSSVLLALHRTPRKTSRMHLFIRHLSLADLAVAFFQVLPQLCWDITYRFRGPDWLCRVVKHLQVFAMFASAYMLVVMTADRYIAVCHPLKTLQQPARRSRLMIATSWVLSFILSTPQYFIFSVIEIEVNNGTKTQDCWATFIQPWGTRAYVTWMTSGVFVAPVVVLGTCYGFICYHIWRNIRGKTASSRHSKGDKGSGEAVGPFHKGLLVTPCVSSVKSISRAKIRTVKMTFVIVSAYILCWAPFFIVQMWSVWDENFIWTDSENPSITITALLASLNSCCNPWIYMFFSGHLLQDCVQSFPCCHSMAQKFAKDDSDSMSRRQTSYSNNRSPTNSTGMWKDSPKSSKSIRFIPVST
# method-summary: Binding Assay to Rat Hepatic V1 Receptors
# run-parameters: rat liver membranes; read-out: V1 IC50
# Experimental: Binding Assay to Rat Hepatic V1 Receptors Rat liver plasma membranes expressing the vasopressin V1 receptor subtypes are isolated by sucrose density gradient according to the method described by Lesko et al., (1973). […] For test compounds, these are solubilized in 50% dimethylsulfoxide (DMSO) and added in 20.0 μl volume to a final incubation volume of 200 μl . […] The data are analyzed for IC50 values by the LUNDON-2 program for competition (LUNDON SOFTWARE, Ohio).
outcome-measure: IC50 (nM)

Previously resolved entries follow.
Cc1ccccc1C(=O)Nc1ccc(C(=O)N2Cc3ccc(CN4CCN(Cc5ccccc5)CC4)n3Cc3ccccc32)cc1 [Example 663] = 9
Cc1ccccc1C(=O)Nc1ccc(C(=O)N2Cc3ccc(Cl)n3Cc3ccccc32)cc1 [Example 41] = 37
Cc1c(F)cccc1C(=O)Nc1ccc(C(=O)N2Cc3ccnn3Cc3ccccc32)cc1 [Example 517] = 210

[I] O=C(Nc1ccc(C(=O)N2Cc3ccc(CN4CCOCC4)n3Cc3ccccc32)cc1)c1ccc(Cl)cc1Cl [Example 666]
[II] COc1cc(Cl)ccc1C(=O)Nc1ccc(C(=O)N2Cc3cccn3Cc3ccccc32)cc1 [Example 89]
Could you tell me which of I and II has the lower IC50 reading? Returns: label corresponding to the selected item.
II

---

# tested-target: Rat Hepatic V1 Receptors (Rattus norvegicus, UniProt P30560)
# Construct: Rat liver plasma membranes expressing the vasopressin V1 receptor subtypes; from tissue; host or cells: rat liver plasma membranes
# method-summary: Binding Assay to Rat Hepatic V1 Receptors
# run-parameters: rat liver membranes; read-out: V1 IC50
pIC50: −log10 of the molar value.
outcome-measure: pIC50

Reference set (3 entries):
Cc1ccc(F)cc1C(=O)Nc1ccc(C(=O)N2Cc3cccn3Cc3ccccc32)c(Cl)c1 = 6.39
CCN(CC)Cc1ccc2n1Cc1ccccc1N(C(=O)c1ccc(NC(=O)c3ccc(Cl)cc3Cl)cc1)C2 = 6.77
O=Cc1ccc2n1Cc1ccccc1N(C(=O)c1ccc(NC(=O)c3ccc(Cl)cc3Cl)cc1)C2 = 6.70

[P] Cc1ccccc1C(=O)Nc1ccc(C(=O)N2Cc3cccn3Cc3sccc32)cc1
[Q] O=C(Nc1ccc(C(=O)N2Cc3cccn3Cc3ccccc32)cc1)c1ccccc1Cl
From the items above, decide which of P and Q has the lower pIC50 reading. Kindly state the label of the option you pick.
P
